target: YBX1 (UniProt P67809); assay: log2 fold change, soluble protein after heating vs DMSO (PISA); higher = thermal stabilisation; K562 cells, 10 uM, 30 min; active = over 0.2 and 3.5 SD of the protein, either way, in both replicates (recomputed)
Sequence (P67809 whole entry, looked up): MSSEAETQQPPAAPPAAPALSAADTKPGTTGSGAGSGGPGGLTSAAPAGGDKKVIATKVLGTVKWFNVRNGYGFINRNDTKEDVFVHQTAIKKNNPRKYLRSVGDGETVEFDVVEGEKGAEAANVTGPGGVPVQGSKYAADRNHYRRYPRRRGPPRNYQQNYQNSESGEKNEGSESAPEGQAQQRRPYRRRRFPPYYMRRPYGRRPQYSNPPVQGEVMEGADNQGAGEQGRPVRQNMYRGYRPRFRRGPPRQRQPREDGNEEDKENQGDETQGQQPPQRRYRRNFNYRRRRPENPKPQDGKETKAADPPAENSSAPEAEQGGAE
About 7,900 targets were measured; listed, in parts, are those with a hit and a random draw of the rest. About 0.6% of all pairs of compound and target were hits.
Rule: log2 fold change under -0.03 gives f, otherwise t.

Consider the worked cases shown below.
log2 fold change >= -0.03 for CN1CC[C@H](c2c(O)cc(O)c3c(=O)cc(-c4ccccc4Cl)oc23)[C@H](O)C1 [alvocidib] ? t

log2 fold change >= -0.03 for CO[C@H]1C[C@@H]2CC[C@@H](C)[C@@](O)(O2)C(=O)C(=O)N2CCCC[C@H]2C(=O)O[C@H]([C@H](C)C[C@@H]2CC[C@H](n3cnnn3)[C@H](OC)C2)CC(=O)[C@H](C)/C=C(\C)[C@@H](O)[C@@H](OC)C(=O)[C@H](C)C[C@H](C)/C=C/C=C/C=C/1C [zotarolimus] ? f

log2 fold change >= -0.03 for `Cc1cccc(-c2[nH]c(C(C)(C)C)nc2-c2ccc3nccnc3c2)n1` ? f

Continuing:
log2 fold change >= -0.03 for `NC(=O)c1cnc(N[C@@H]2CCCC[C@@H]2N)nc1Nc1cccc(-n2nccn2)c1` ? t

log2 fold change >= -0.03 for `O=C1NC(=O)/C(=C\c2ccc3nccnc3c2)S1` ? t

log2 fold change >= -0.03 for `CCn1cc(-c2ccnc3[nH]c(-c4cccc(CN(C)C)c4)cc23)c(-c2ccc(NC(=O)N(C)C)cc2)n1` ? t

log2 fold change >= -0.03 for CCCCN(Cc1ccc(C(=O)NO)cc1)C(=O)Nc1ccccc1 [Nexturastat A] ? t

log2 fold change >= -0.03 for C[C@@H](Oc1cc(-c2cnn(C3CCNCC3)c2)cnc1N)c1c(Cl)ccc(F)c1Cl [crizotinib] ? t

log2 fold change >= -0.03 for Cc1cn(-c2cc(NC(=O)c3ccc(C)c(Nc4nccc(-c5cccnc5)n4)c3)cc(C(F)(F)F)c2)cn1 [nilotinib] ? t

log2 fold change >= -0.03 for `NCC(=O)Nc1ccc(-n2nc(C(F)(F)F)cc2-c2ccc3c(ccc4ccccc43)c2)cc1` ? t

log2 fold change >= -0.03 for COc1cc2ncnc(Nc3ccc(F)c(Cl)c3)c2cc1OCCCN1CCOCC1 [gefitinib] ? f
